# testSummary: plasma protein binding by Rapid Equilibrium Dialysis, minipig
# Assay type: in vitro ADME
# protocolConditions: minipig, plasma, read-out: Mean % Bound (converted)
quantity: fraction unbound at 4 h, 2 μM

recordSmiles: CC(C)c1c(O)cc(-c2cc3ccccc3cn2)cc1O
result: 0.02

----------
# testSummary: skin binding in human skin homogenate
# Format: in vitro ADME
# protocolConditions: human dermis homogenate; 25, 50 and 100 ng/mL

recordSmiles: CC(C)c1c(O)cc(-c2cc3ccccc3cn2)cc1O
fraction unbound: 0.341

----------
# testSummary: plasma protein binding by Rapid Equilibrium Dialysis, human
# Type: in vitro ADME
# protocolConditions: human, plasma, read-out: % Unbound Replicate

recordSmiles: CC(C)c1c(O)cc(-c2cc3ccccc3cn2)cc1O
fraction unbound at 2 μM: 0.0106

----------
# testSummary: metabolic stability in liver microsomes, minipig
# Format: in vitro ADME
# protocolConditions: minipig, microsomes

recordSmiles: CC(C)c1c(O)cc(-c2cc3ccccc3cn2)cc1O
half-life at 0.5 μM: 24.2 min

----------
# testSummary: metabolic stability in hepatocytes, rabbit
# Assay type: in vitro ADME
# protocolConditions: read-out: Scaled CLint, hep

recordSmiles: CC(C)c1c(O)cc(-c2cc3ccccc3cn2)cc1O
unitAbbreviation: mL/min/kg
CLint scaled at 0.5 μM: 240

----------
# testSummary: pharmacokinetics after a single intravenous dose, rat
# Assay type: in vivo
# protocolConditions: plasma, 1 mg/kg intravenous, mean n = 3, read-out: CLp
quantity: clearance

recordSmiles: CC(C)c1c(O)cc(-c2cc3ccccc3cn2)cc1O
result: 10.5 L/h/kg

----------
# testSummary: metabolic stability in liver microsomes, human
# Assay type: in vitro ADME
# protocolConditions: human liver microsomes, 0.5 μM; read-out: Scaled CLint, mic
quantity: CLint scaled at 0.5 μM (mL/min/kg)

recordSmiles: CC(C)c1c(O)cc(-c2cc3ccccc3cn2)cc1O
quantity: CLint scaled at 0.5 μM
unitAbbreviation: mL/min/kg
result: 33.1

----------
# testSummary: metabolic stability in liver microsomes, minipig
# Assay type: in vitro ADME
# protocolConditions: minipig liver microsomes, 0.5 μM; read-out: Scaled CLint, mic

recordSmiles: CC(C)c1c(O)cc(-c2cc3ccccc3cn2)cc1O
CLint scaled at 0.5 μM / mL/min/kg: 50.3

----------
# testSummary: metabolic stability in liver microsomes, rat
# Format: in vitro ADME
# protocolConditions: rat, microsomes

recordSmiles: CC(C)c1c(O)cc(-c2cc3ccccc3cn2)cc1O
half-life at 0.5 μM, min: 10.3

----------
# testSummary: metabolic stability in liver microsomes, rabbit
# Type: in vitro ADME
# protocolConditions: rabbit, microsomes
quantity: half-life at 0.5 μM (min)

recordSmiles: CC(C)c1c(O)cc(-c2cc3ccccc3cn2)cc1O
quantity: half-life at 0.5 μM
unitAbbreviation: min
result: 6.1

----------
# testSummary: pharmacokinetics after a single intravenous dose, rat
# Type: in vivo
# protocolConditions: plasma, 1 mg/kg intravenous, mean n = 3, read-out: Vss

recordSmiles: CC(C)c1c(O)cc(-c2cc3ccccc3cn2)cc1O
unitAbbreviation: L/kg
Vd: 6

----------
# testSummary: skin binding in human skin homogenate
# Assay type: in vitro ADME
# protocolConditions: human epidermis homogenate; 25, 50 and 100 ng/mL

recordSmiles: CC(C)c1c(O)cc(-c2cc3ccccc3cn2)cc1O
fraction unbound: 0.513

----------
# testSummary: metabolic stability in hepatocytes, rat
# Type: in vitro ADME
# protocolConditions: rat hepatocytes, 0.5 μM; read-out: Scaled CLint, hep
quantity: CLint scaled at 0.5 μM (L/h/kg)

recordSmiles: CC(C)c1c(O)cc(-c2cc3ccccc3cn2)cc1O
quantity: CLint scaled at 0.5 μM
unitAbbreviation: L/h/kg
result: 95.8

----------
# testSummary: metabolic stability in hepatocytes, mouse
# Type: in vitro ADME
quantity: half-life at 0.5 μM (min)

recordSmiles: CC(C)c1c(O)cc(-c2cc3ccccc3cn2)cc1O
quantity: half-life at 0.5 μM
result: 8.39

----------
# testSummary: pharmacokinetics after a single intravenous dose, minipig
# Format: in vivo
# protocolConditions: plasma, 1 mg/kg intravenous, mean, read-out: Vss

recordSmiles: CC(C)c1c(O)cc(-c2cc3ccccc3cn2)cc1O
unitAbbreviation: L/kg
Vd: 1.5

----------
# testSummary: blood-to-plasma ratio and blood cell association, human
# Type: in vitro ADME
# protocolConditions: blood, read-out: Blood-to-plasma Ratio Mean (% CV)

recordSmiles: CC(C)c1c(O)cc(-c2cc3ccccc3cn2)cc1O
blood plasma ratio at 1 μM: 1.24

Where do these numbers come from? They come from patent US20220017468A1.
